- Method Summary: qHTS of pediatric cancer cell lines to identify multiple opportunities for drug repurposing: Primary screen for LAN-5 cells (AID 1347100)
- Recorded Conditions: LAN-5 neuroblastoma viability, CellTiter-Glo luminescence, 48 h; series mostly up to 46 µM
Inconclusive results are not listed. Activity calls are given as the source filed them. Calls follow the shape of the dose curve; as a rule, active = well fitted cell-killing curve with a large enough effect; inconclusive = small, poorly fitted or top-dose-only effect; inactive = no such curve, though single readings can be large or run the other way.
Write down the outcome that applies. Available outcomes: TRUE (active), FALSE (inactive)

Asked: Short answer needed: outcome of this test for N[C@H]1CN(c2c(F)cc3c(=O)c(C(=O)O)cn(C4C[C@@H]4F)c3c2Cl)CC12CC2 (stereo not given in full) ?
Given back: TRUE

Asked: In this assay, the call recorded for OCCNC1CCCc2c1[nH]c1ccc(-c3ccccc3)cc21 (stereo not given) was what?
Given back: TRUE

Asked: Answer briefly: the call reported for c1cncc(CN2CCC(n3ncc4c(N5CCOCC5)nc(-c5ccc6[nH]ccc6c5)nc43)CC2)c1 in this assay.
Given back: TRUE

Asked: Record lookup: outcome of this test for COc1cc(C)c(Sc2cnc(NC(=O)c3ccc(CNC(C)C(C)(C)C)cc3)s2)cc1C(=O)N1CCN(C(C)=O)CC1 (stereo not given) ?
Given back: TRUE

Asked: Returns: the outcome recorded for C=C1C(=O)O[C@H]2[C@@H]1CCC(C)=CCC[C@@]1(C)O[C@@H]21 in this assay.
Given back: TRUE

Asked: # fetch the recorded call for OCC(O)C(O)C(O)CO (stereo not given) here
Given back: FALSE

Asked: Recorded test call requested for CC(C=CC(=O)NO)=C[C@@H](C)C(=O)c1ccc(N(C)C)cc1
Given back: TRUE

Asked: Dear colleague, could you share the recorded outcome for COC1=C2C[C@@H](C)C[C@H](OC)[C@@H](O)[C@@H](C)C=C(C)[C@H](OC(N)=O)[C@@H](OC)C=CC=C(C)C(=O)NC(=CC1=O)C2=O when you have a moment?
Given back: TRUE

Asked: Given Cc1cc(-c2nnc3n2CCCCC3)c(C)n1-c1ccccc1 , state the outcome it received in this test.
Given back: FALSE

Asked: Please state the recorded outcome for this compound: CC(C)c1cnn2c(NCc3ccccc3)cc(NCCCCCCN)nc12
Given back: TRUE

Asked: Test call, this compound: Cc1ccc(O)c(C(CCN(C(C)C)C(C)C)c2ccccc2)c1 (stereo not given)
Given back: FALSE

Asked: State the result this test recorded for CN(N=O)C(=O)N[C@H]1C(O)OC(CO)[C@@H](O)[C@H]1O (stereo not given in full) .
Given back: FALSE

Asked: Record lookup: outcome of this test for CCN(CC)CCCCNc1ncc2c(n1)N(C)C(=O)N(c1c(Cl)c(OC)cc(OC)c1Cl)C2 ?
Given back: TRUE

Asked: Check the results log: what was the call for CO[C@@H]1[C@@H](O)[C@H](O)[C@@H](n2c3c(Cl)cccc3c3c4c(c5c6cccc(Cl)c6[nH]c5c32)C(=O)NC4=O)O[C@@H]1CO ?
Given back: TRUE

Asked: GET /call?item= O=C(O)[C@H](CC(=O)N1C[C@@H]2CCCC[C@H]2C1)Cc1ccccc1 returns the recorded outcome of this test.
Given back: FALSE

###

- Method Summary: Quantitative High-Throughput drug screen in 47 multiple myeloma cell lines against the NCATS MIPE library collection: KMS27_JCRB cell viability assay (AID 1918970); also: nearly all actives have a fitted effect of over 30% in size
- Recorded Conditions: KMS27 myeloma cells, CellTiter-Glo ATP viability, 48 h
Inconclusive results are not listed. The source made the active and inactive calls. Calls follow the shape of the dose curve; as a rule, active = well fitted cell-killing curve with a large enough effect; inconclusive = small, poorly fitted or top-dose-only effect, or effect the other way; inactive = no such curve, though single readings can be large or run the other way.
Form entry, call: pick from active, inactive

Asked: Give the logged outcome of this assay for the following compound: CC(C)(O)Cn1c(NC(=O)c2ccc(-c3cn[nH]c3)s2)nc2cc(CN3CCOCC3)ccc21
Given back: active

Asked: Dear all, I need the recorded test outcome for c1cc(N[C@@H]2CCNC2)nc(-c2cnc3ccc(-c4cn[nH]c4)cn23)c1 , thank you.
Given back: active

Asked: Hi, do you know how O=C(O)C(=O)Nc1cccc(C2=NN=N[N]2)c1 came out in this test?
Given back: inactive

Data credit: PubChem BioAssay (NCATS)
